Measured values drawn from patent US9737505B2 for this set.

# Experiment Notes: Solubility in aqueous media
# Assay type: physicochemical
# Condition Notes: thermodynamic from solid; SGF (Simulated Gastric Fluid pH 1.6), 4 hour; read-out: Solubility at 4 hour timepoint
Quantity Kind: solubility at 4 h (µg/mL)
Give a bare numeral; the unit µg/mL is implied.

Req: Quick check: solubility at 4 h of O=C(OCOC(=O)[C@H]1CCCN1C(=O)CCCCC(=O)N1CCC[C@@H]1C(=O)OCOC(=O)OC1CCOCC1)OC1CCOCC1 ?
Resp: 5200

----------
# Study System: CYP3A4 (Homo sapiens, UniProt P08684)
# Construct: purchased Cypex; host or cells: bactosomes (bacterial membranes)
# Sequence (P08684 whole entry): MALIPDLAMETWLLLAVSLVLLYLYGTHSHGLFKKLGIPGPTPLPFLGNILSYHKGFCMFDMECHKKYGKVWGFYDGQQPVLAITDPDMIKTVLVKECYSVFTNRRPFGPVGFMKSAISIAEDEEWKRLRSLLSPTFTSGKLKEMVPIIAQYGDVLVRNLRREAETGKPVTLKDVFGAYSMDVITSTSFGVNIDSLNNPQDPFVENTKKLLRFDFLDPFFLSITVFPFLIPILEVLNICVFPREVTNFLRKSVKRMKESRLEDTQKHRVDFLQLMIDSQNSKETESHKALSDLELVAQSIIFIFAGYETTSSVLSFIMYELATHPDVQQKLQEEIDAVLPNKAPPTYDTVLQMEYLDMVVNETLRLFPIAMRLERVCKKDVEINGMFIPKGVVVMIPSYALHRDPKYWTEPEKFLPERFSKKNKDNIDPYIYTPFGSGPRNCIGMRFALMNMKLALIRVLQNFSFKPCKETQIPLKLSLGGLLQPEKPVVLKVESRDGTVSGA
# Experiment Notes: Cytochrome p450 inhibition assay (bactosomes, fluorogenic substrates 7BQ and DEF)
# Format: biochemical
# Condition Notes: recombinant human CYP (Cypex bactosomes), substrate DEF; read-out: IC50 CYP3A4 (DEF)
pIC50: −log10 of the molar value.
Quantity Kind: pIC50

>  <Molecule>
O=C(OCOC(=O)[C@H]1CCCN1C(=O)CCCCC(=O)N1CCC[C@@H]1C(=O)O)OC1CCOCC1 [mono-ester derivative]

>  <Quantity Kind>
pIC50

>  <Result>
< 4.48

$$$$

Req: What value of measured pIC50 is listed for CC(OC(=O)[C@H]1CCCN1C(=O)CCCCC(=O)N1CCC[C@@H]1C(=O)OC(C)OC(=O)C(C)(C)C)OC(=O)C(C)(C)C (stereo partly drawn) [Comparator Compound, reference compound] ?
Resp: 5.96

Req: Next up: O=C(OCOC(=O)[C@H]1CCCN1C(=O)CCCCC(=O)N1CCC[C@@H]1C(=O)OCOC(=O)OC1CCOCC1)OC1CCOCC1 [Compound of Formula (I)]
Resp: < 4.48
